- System: OVCAR-3 ovarian
- METHOD DESCRIPTION: NCI-60 one-dose screen, 48 h
- CONDITIONS: 10 µM unless noted
- Protocol: Growth inhibition of the OVCAR-3 human tumor cell line is measured as a screen for anti-cancer activity. Cells are grown in 96 well plates and exposed to the test compound for 48 hours. Compounds are tested at a single concentration, which is 10^-5 M for most compounds. The reported endpoint is percent growth (GI% or GIPRCNT), where numbers from 0 - 100% represent growth inhibition, and numbers from -100% - 0 represent cell death. For example, a value of 40 represents 60% growth inhibition. […]
This is part of a sample that, as a whole, favours compounds with a hit. Of some 83,000 tested, about 20% had one in any assay. Calls of active or inactive are those of the source. Rule for the calls: active = growth percent below 10; inactive = the rest.
Just give me one of these, please: active, inactive

Worked cases, answers included:
Q: # outcome recorded in this test, key = CC(=O)Oc1ccc(C2OC(c3ccc4ccccc4c3OC(C)=O)=NN2C(C)=O)c(OC(C)=O)c1 (stereo not drawn)
Result: inactive

Q: How was Cc1cc(CC(=O)O)n(C)c1C(=O)c1ccc(Cl)cc1 classified in this test?
Result: inactive

Q: Hey, what did the test say about COc1cc(OC)c2sc(-c3ccc(-n4cncc4-c4ccc(N)cc4)cc3)nc2c1 ?
Result: inactive

Now consider the entry below.
Q: // return assay outcome for Cc1cc(N2CCOCC2)nc(N2CCOCC2)n1
Result: inactive
